Reported melting point values for a set of compounds

Examples with answers:
[[record]]
compound = "CC(C)CC(NC(=O)C(Cc1ccccc1)NC(=O)c1cncc(C(=O)NC(Cc2ccccc2)C(=O)NC(CC(C)C)C(=O)NN=C2CCCCCC2)c1)C(=O)NN=C1CCCCCC1 (stereo not drawn) [3c]"
assay_result = "221 to 223 °C"

[[record]]
compound = "CC(C)CC(NC(=O)C(Cc1ccccc1)NC(=O)c1cncc(C(=O)NC(Cc2ccccc2)C(=O)NC(CC(C)C)C(=O)NN=C2CCCCCCC2)c1)C(=O)NN=C1CCCCCCC1 (stereo not drawn) [3d]"
assay_result = "242 to 244 °C"


Return melting point for the following compound: CC(=NNC(=O)C(CC(C)C)NC(=O)C(Cc1ccccc1)NC(=O)c1cncc(C(=O)NC(Cc2ccccc2)C(=O)NC(CC(C)C)C(=O)NN=C(C)c2ccncc2)c1)c1ccncc1 (stereo not drawn) (hydrate or solvate) [4c] 196 to 198 °C

====

- System: breast cancer cells (MCF-7)
- MEASUREMENT_DESCRIPTION: In vitro cytotoxic activity against MCF-7 cancer cells (MTT)
- Type: cell-based, human
- CONDITION_LABEL: Homo sapiens, MCF7; MCF-7, MTT
ATTRIBUTE_MEASURED: pIC50
For clarity, pIC50 is expressed as the negative log10 of concentration in mol/L.

Specify pIC50 for CC(=NNC(=O)C(CC(C)C)NC(=O)C(Cc1ccccc1)NC(=O)c1cncc(C(=O)NC(Cc2ccccc2)C(=O)NC(CC(C)C)C(=O)NN=C(C)c2cccnc2)c1)c1cccnc1 (stereo not shown) and stop. 5.09

====

Recorded measurements of melting point, one per entry

[[record]]
compound = "CC(=NNC(=O)C(CC(C)C)NC(=O)C(Cc1ccccc1)NC(=O)c1cncc(C(=O)NC(Cc2ccccc2)C(=O)NC(CC(C)C)C(=O)NN=C(C)c2ccc([N+](=O)[O-])cc2)c1)c1ccc([N+](=O)[O-])cc1 (stereo not drawn) (hydrate or solvate) [5e]"
attribute_measured = "melting point"
assay_result = "256 to 258 °C"

[[record]]
compound = "CC(C)CC(NC(=O)C(Cc1ccccc1)NC(=O)c1cncc(C(=O)NC(Cc2ccccc2)C(=O)NC(CC(C)C)C(=O)NN=C2CCCC2)c1)C(=O)NN=C1CCCC1 (stereo not drawn) [3a]"
attribute_measured = "melting point"
assay_result = "232 to 234 °C"


Give reported melting point value for CC(C)CC(NC(=O)C(Cc1ccccc1)NC(=O)c1cncc(C(=O)NC(Cc2ccccc2)C(=O)NC(CC(C)C)C(=O)NN=Cc2ccco2)c1)C(=O)NN=Cc1ccco1 (stereo not drawn) [6a] 205 to 207 °C
